measured.on: outer ubiquinone-binding site of complex III (site IIIQo) (Rattus norvegicus, UniProt P00159+P20788)
Construct: from tissue; host or cells: skeletal muscle mitochondria
experiment.notes: Site-specific H2O2 production from site IIIQo in skeletal muscle mitochondria
Assay type: biochemical
test.settings: primary screen, ∼2.5 µM, average of duplicates; 5 mM succinate
measurement.type: IIIQo (% change from DMSO) (%)

>>> observed_result("COc1ccc(NCCNc2ccc(OC)cc2)cc1")
-30.1
>>> observed_result("Cc1ccc(S(=O)(=O)c2cc(O)ccc2O)cc1C")
-50.4
>>> observed_result("O=C(Cc1ccccc1)Nc1cc(C(=O)O)c(NC(=O)Cc2ccccc2)cc1C(=O)O")
-32.7
>>> observed_result("Cc1ccc(NC(=O)c2ccc(C(C)(C)C)cc2)cc1")
11.8
>>> observed_result("COc1ccc(CNc2cccc(N(C)C)c2)cc1")
-33.8
>>> observed_result("COc1cc(CN2CCOCC2)ccc1O")
-15.0
>>> observed_result("O=C(Nc1ccc(O)cc1)c1ccco1")
-8.4
>>> observed_result("Nc1ccccc1S(=O)(=O)Nc1cccc2cccnc12")
9.1
>>> observed_result("CC(C)c1nnc(NC(=O)c2cccc([N+](=O)[O-])c2)s1")
4.3
>>> observed_result("Cc1ccc(S(=O)(=O)CCC#N)cc1C")
-15.9
>>> observed_result("CC1(C)CC(=O)C2=C(C1)Nc1cc(Cl)ccc1S2")
-20.2
